Source: ChEMBL document CHEMBL4665832

Measured GI50 of individual entries
- System: Jurkat
- Test Description: Antiproliferative activity against human Jurkat cells assessed as cell growth inhibition
- Assay type: functional

[
  {
    "Cpd Smiles": "O=C(COc1ccc(/C=C2\\SC(=O)NC2=O)cc1)Nc1ccc(F)cc1",
    "Modifier": "=",
    "GI50 [µM]": 59.9
  },
  {
    "Cpd Smiles": "O=C(COc1ccc(/C=C2\\SC(=O)NC2=O)cc1)Nc1ccc(Cl)cc1C(F)(F)F",
    "Modifier": "=",
    "GI50 [µM]": 28.9
  },
  {
    "Cpd Smiles": "O=C(COc1ccc(/C=C2\\SC(=O)NC2=O)cc1)Nc1ccc(F)cc1F",
    "Modifier": "=",
    "GI50 [µM]": 34.6
  },
  {
    "Cpd Smiles": "O=C(COc1ccc(/C=C2\\SC(=O)NC2=O)cc1)Nc1c(Cl)cccc1Cl",
    "Modifier": "=",
    "GI50 [µM]": 21.9
  },
  {
    "Cpd Smiles": "O=C(COc1ccc(/C=C2\\SC(=O)NC2=O)cc1)Nc1ccc(Cl)cc1",
    "Modifier": ">",
    "GI50 [µM]": 100
  },
  {
    "Cpd Smiles": "O=C(COc1ccc(/C=C2\\SC(=O)NC2=O)cc1)Nc1cccc(C(F)(F)F)c1",
    "Modifier": "=",
    "GI50 [µM]": 26.5
  }
]

====

- Test Description: Acute toxicity in po dosed mouse assessed as maximum tolerated dose
- Assay type: organism-based
- Condition Summary: in vivo

[
  {
    "Cpd Smiles": "O=C(COc1ccc(/C=C2\\SC(=O)NC2=O)cc1)Nc1ccc(Cl)cc1C(F)(F)F",
    "MTD, mg/kg": 2000
  },
  {
    "Cpd Smiles": "O=C(COc1ccc(/C=C2\\SC(=O)NC2=O)cc1)Nc1ccc(F)cc1F",
    "MTD, mg/kg": 2000
  }
]

====

Measured GI50 of individual entries
- Tested on: K562
- Test Description: Antiproliferative activity against human K562 cells assessed as cell growth inhibition
- Type: functional

[
  {
    "Molecule": "O=C(COc1ccc(/C=C2\\SC(=O)NC2=O)cc1)Nc1c(Cl)cccc1Cl",
    "Modifier": "=",
    "GI50 [µM]": 6.7
  },
  {
    "Molecule": "O=C(COc1ccc(/C=C2\\SC(=O)NC2=O)cc1)Nc1ccc(C(F)(F)F)cc1Cl",
    "Modifier": "=",
    "GI50 [µM]": 16.3
  },
  {
    "Molecule": "O=C(COc1ccc(/C=C2\\SC(=O)NC2=O)cc1)Nc1ccc(F)cc1F",
    "Modifier": "=",
    "GI50 [µM]": 0.9
  },
  {
    "Molecule": "Cc1cc(Br)ccc1NC(=O)COc1ccc(/C=C2\\SC(=O)NC2=O)cc1",
    "Modifier": "=",
    "GI50 [µM]": 20.7
  },
  {
    "Molecule": "O=C(COc1ccc(/C=C2\\SC(=O)NC2=O)cc1)Nc1ccc(Br)cc1",
    "Modifier": "=",
    "GI50 [µM]": 23.4
  },
  {
    "Molecule": "O=C(COc1ccc(/C=C2\\SC(=O)NC2=O)cc1)Nc1c(F)cc(Br)cc1F",
    "Modifier": "=",
    "GI50 [µM]": 23.1
  },
  {
    "Molecule": "O=C(COc1ccc(/C=C2\\SC(=O)NC2=O)cc1)Nc1ccc(Cl)cc1C(F)(F)F",
    "Modifier": "=",
    "GI50 [µM]": 0.23
  },
  {
    "Molecule": "Cc1ccc(NC(=O)COc2ccc(/C=C3\\SC(=O)NC3=O)cc2)cc1Cl",
    "Modifier": "=",
    "GI50 [µM]": 19.6
  },
  {
    "Molecule": "O=C(COc1ccc(/C=C2\\SC(=O)NC2=O)cc1)Nc1ccc(F)cc1",
    "Modifier": "=",
    "GI50 [µM]": 9.6
  },
  {
    "Molecule": "CCc1ccc(CCOc2ccc(CC3SC(=O)NC3=O)cc2)nc1 (configuration not stated) [PIOGLITAZONE]",
    "Modifier": "=",
    "GI50 [µM]": 40.1
  },
  {
    "Molecule": "O=C(COc1ccc(/C=C2\\SC(=O)NC2=O)cc1)Nc1ccccc1",
    "Modifier": "=",
    "GI50 [µM]": 17.6
  },
  {
    "Molecule": "Cc1cccc(NC(=O)COc2ccc(/C=C3\\SC(=O)NC3=O)cc2)n1",
    "Modifier": "=",
    "GI50 [µM]": 10.7
  },
  {
    "Molecule": "O=C(COc1ccc(/C=C2\\SC(=O)NC2=O)cc1)Nc1ccc(Cl)cc1",
    "Modifier": "=",
    "GI50 [µM]": 7.4
  },
  {
    "Molecule": "Cc1cccc2sc(NC(=O)COc3ccc(/C=C4\\SC(=O)NC4=O)cc3)nc12",
    "Modifier": "=",
    "GI50 [µM]": 45.8
  },
  {
    "Molecule": "O=C(COc1ccc(/C=C2\\SC(=O)NC2=O)cc1)Nc1ccc([N+](=O)[O-])cc1",
    "Modifier": "=",
    "GI50 [µM]": 29.5
  },
  {
    "Molecule": "COc1cccc2c1C(=O)c1c(O)c3c(c(O)c1C2=O)C[C@@](O)(C(=O)CO)C[C@@H]3O[C@H]1C[C@H](N)[C@H](O)[C@H](C)O1 [DOXORUBICIN]",
    "Modifier": "<",
    "GI50 [µM]": 0.1
  },
  {
    "Molecule": "O=C(COc1ccc(/C=C2\\SC(=O)NC2=O)cc1)Nc1cccc([N+](=O)[O-])c1",
    "Modifier": "=",
    "GI50 [µM]": 20.5
  }
]
